Target: T1, human CD81 on CD81-expressing cells (Jurkat E6.1, human PBMC, Ramos) (human, UniProt P60033 1-236)
T1 sequence: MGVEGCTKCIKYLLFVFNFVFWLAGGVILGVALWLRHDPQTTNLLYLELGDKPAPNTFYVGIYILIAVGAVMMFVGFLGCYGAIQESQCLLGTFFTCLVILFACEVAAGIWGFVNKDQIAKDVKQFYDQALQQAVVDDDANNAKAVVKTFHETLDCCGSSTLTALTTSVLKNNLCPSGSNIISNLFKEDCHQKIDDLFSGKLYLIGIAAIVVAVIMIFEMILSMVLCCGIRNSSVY
Assay: cell-based or functional assay
Threshold 90%. Jurkat chemotaxis (% of control IgG4) at 0.001 µg/mL below it: criterion met. Jurkat chemotaxis (% of control IgG4) at 0.001 µg/mL at it or above: criterion not met.

Worked examples, 3 binders total:
002-F05 (antibody, human IgG4 S228P, lambda, V domains shown, IgG4 S228P) VH: EVQLLESGGGLVQPGGSLRLSCAASGFTFSSNYMSWVRQAPGKGLEWVSYISSSSTYTDYADSVKGRFTISRDNSKNTLYLQMNSLRAEDTAVYYCARYSYGRDDFDYWGQGTLVTVSS VL: QSVLTQPASASGTPGQRVTISCTGSTSNIGAGYDTHWYQQLPGTAPKLLIYGNSNRPSGVPDRFSGSKSGTSASLAISGLRSEDEADYYCQSYDTNLNVWVFGGGTKLTVLG	criterion not met
002-A07 S115G (antibody, human IgG4 S228P, lambda, V domains shown, IgG4 S228P; glycosylation site mutant of 002-A07 VL) VH: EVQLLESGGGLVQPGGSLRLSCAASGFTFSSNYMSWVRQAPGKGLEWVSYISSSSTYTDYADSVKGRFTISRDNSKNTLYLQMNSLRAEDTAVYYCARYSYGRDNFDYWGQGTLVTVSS VL: QSVLTQPPSASGTPGQRVTISCTGSTSNIGAGYDTHWYQQLPGTAPKLLIYGNSNRPSGVPDRFSGSKSGTSASLAISGLRSEDEADYYCQSYDTNLGVWVFGGGTKLTVLG	criterion met
003-A10 (antibody, human IgG4 S228P, lambda, V domains shown, IgG4 S228P) VH: EVQLLESGGGLVQPGGSLRLSCAASGFTFSSNYMSWVRQAPGKGLEWVSYISSSSTYTDYADSVKGRFTISRDNSKNTLYLQMNSLRAEDTAVYYCARYSYGRDTFDYWGQGTLVTVSS VL: QSVLTQPFSASGTPGQRVTISCTGSTSNIGAGYDTHWYQQLPGTAPKLLIYGNSNRPSGVPDRFSGSKSGTSASLAISGLRSEDEADYYCQSYDTNLSVWVFGGGTKLTVLG	criterion not met

Next up:
Please indicate whether the reported Jurkat chemotaxis (% of control IgG4) at 0.001 µg/mL of 002-A07 S115A (antibody, human IgG4 S228P, lambda, V domains shown, IgG4 S228P; glycosylation site mutant of 002-A07 VL) VH: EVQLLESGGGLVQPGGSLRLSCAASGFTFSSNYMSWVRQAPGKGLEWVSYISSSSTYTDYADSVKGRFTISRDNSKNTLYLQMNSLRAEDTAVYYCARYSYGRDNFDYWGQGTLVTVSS VL: QSVLTQPPSASGTPGQRVTISCTGSTSNIGAGYDTHWYQQLPGTAPKLLIYGNSNRPSGVPDRFSGSKSGTSASLAISGLRSEDEADYYCQSYDTNLAVWVFGGGTKLTVLG is strictly below 90%.
criterion met
